- assay.summary: Human HepG2 cell viability assay in 384 well format
- Assay type: toxicity, cell-based
- Set-up: dose 125 nL, time 70.5 hour; concentration not given beside the values
- particulars: HepG2 cells, read-out: Inhibition
quantity.kind: cytotoxicity at 70.5 h (%)
State just the number; it will be interpreted in %.

Below, each entry is followed by its recorded cytotoxicity at 70.5 h result.
compound	unit.symbol	test.result
Cc1cc(-c2nn(C)c(Cl)c2CN2CC[C@@](O)(C3CCC3)[C@H](C)C2)no1	%	0.567
CCC1=N[C@@]2(CC[C@@H]3CN(Cc4ccccc4F)C[C@@H]32)C(=O)N1CC	%	-6.42
CN(C)C(=O)Cc1nc(CN2CCCCC2Cn2cccn2)cs1 (stereo unspecified)	%	37
O=C(NCc1cccnc1)[C@@H]1C[C@@H]2CCN(c3ncc(F)cn3)C[C@@H]2O1	%	-12.2
Cn1cc(CN2C[C@@H](N3CCCC3=O)[C@H]3OCCC[C@H]32)cn1	%	-3.55
CNC(=O)COc1ccc(CNCc2c(C)nn(C)c2N(C)C)cc1	%	-0.911
CN(C)S(=O)(=O)N1CCCC(C)(c2ncc(C(N)=O)s2)C1 (stereo unspecified)	%	5.78
Cc1cc(N(C)C)nc(C2CCCN2)n1 (stereo unspecified)	%	-3.78
CC(C)(C)c1ccc(C2(C(=O)NCCCS(C)(=O)=O)CC2)cc1	%	-1.31
O=C(CCn1cncn1)N1CC[C@@H](c2ccc3ccccc3c2)[C@H](O)C1	%	-10.5

Ask | State, in one line, measured cytotoxicity at 70.5 h of NCc1ccc(OC(F)F)cc1OC(F)F
Reply | -15.9

Ask | State, in one line, measured cytotoxicity at 70.5 h of CC(c1nc(C2CC2)no1)N1CCN(CC(=O)N2CCOCC2)CC1 (stereo unspecified)
Reply | 0.558

Ask | State, in one line, measured cytotoxicity at 70.5 h of Cc1ccc(S(C)(=O)=O)cc1NCC(=O)NCCC1=CCCCC1
Reply | -9.03

Ask | State, in one line, measured cytotoxicity at 70.5 h of CCn1nc(C)c2nnn(CC(=O)Nc3cccc(C)c3)c(=O)c21
Reply | -10.1

Ask | State, in one line, measured cytotoxicity at 70.5 h of COCc1ccc(CNCc2c(C)nn(C)c2N(C)C)cc1
Reply | 24.1

Ask | State, in one line, measured cytotoxicity at 70.5 h of COc1ccccc1CN1CCCC2(Cc3ccccc3CNC2=O)C1 (stereo unspecified)
Reply | -1.54

Ask | State, in one line, measured cytotoxicity at 70.5 h of COC(=O)CNC(=O)Cn1ccc2cccc(OC)c21
Reply | 7.12

Ask | State, in one line, measured cytotoxicity at 70.5 h of Cn1ncnc1-c1ccnc(NCc2ccccn2)n1
Reply | 9.26

Ask | State, in one line, measured cytotoxicity at 70.5 h of CN(C)C(=O)CO[C@H]1CO[C@@]2(CCN(Cc3ccsc3)C2)C1
Reply | -6.3

Ask | State, in one line, measured cytotoxicity at 70.5 h of CCN1CCN(c2ccc(CNC(=O)c3cc(C)on3)cn2)CC1
Reply | -4.09

Ask | State, in one line, measured cytotoxicity at 70.5 h of COc1cccn(CC(=O)N2CCCC3(CCCCC3)C2)c1=O
Reply | -4.6

Ask | State, in one line, measured cytotoxicity at 70.5 h of Cn1cc(CN2CCCC3(CCN(Cc4cccnc4)C3=O)C2)cn1 (stereo unspecified)
Reply | -13.4

Ask | State, in one line, measured cytotoxicity at 70.5 h of O=C(c1cn(-c2ccccc2)nn1)N1CCCC(n2cccn2)C1 (stereo unspecified)
Reply | -3.98

Ask | State, in one line, measured cytotoxicity at 70.5 h of CCOCCN1CCN(CC(O)c2ccc(OC)cc2)CC1 (stereo unspecified)
Reply | 36.2

Ask | State, in one line, measured cytotoxicity at 70.5 h of Cc1nc(NS(=O)(=O)c2ccc(F)c(Br)c2)no1
Reply | -2.96

Ask | State, in one line, measured cytotoxicity at 70.5 h of CCS(=O)(=O)N1CCC2(CC1)CC(COC)N(c1ncccn1)C2 (stereo unspecified)
Reply | 2.68
